- testedTarget: LRRK2 (G2019S) (Homo sapiens, UniProt Q5S007, G2019S)
- Sequence (Q5S007 970-2527 G2019S limits assumed): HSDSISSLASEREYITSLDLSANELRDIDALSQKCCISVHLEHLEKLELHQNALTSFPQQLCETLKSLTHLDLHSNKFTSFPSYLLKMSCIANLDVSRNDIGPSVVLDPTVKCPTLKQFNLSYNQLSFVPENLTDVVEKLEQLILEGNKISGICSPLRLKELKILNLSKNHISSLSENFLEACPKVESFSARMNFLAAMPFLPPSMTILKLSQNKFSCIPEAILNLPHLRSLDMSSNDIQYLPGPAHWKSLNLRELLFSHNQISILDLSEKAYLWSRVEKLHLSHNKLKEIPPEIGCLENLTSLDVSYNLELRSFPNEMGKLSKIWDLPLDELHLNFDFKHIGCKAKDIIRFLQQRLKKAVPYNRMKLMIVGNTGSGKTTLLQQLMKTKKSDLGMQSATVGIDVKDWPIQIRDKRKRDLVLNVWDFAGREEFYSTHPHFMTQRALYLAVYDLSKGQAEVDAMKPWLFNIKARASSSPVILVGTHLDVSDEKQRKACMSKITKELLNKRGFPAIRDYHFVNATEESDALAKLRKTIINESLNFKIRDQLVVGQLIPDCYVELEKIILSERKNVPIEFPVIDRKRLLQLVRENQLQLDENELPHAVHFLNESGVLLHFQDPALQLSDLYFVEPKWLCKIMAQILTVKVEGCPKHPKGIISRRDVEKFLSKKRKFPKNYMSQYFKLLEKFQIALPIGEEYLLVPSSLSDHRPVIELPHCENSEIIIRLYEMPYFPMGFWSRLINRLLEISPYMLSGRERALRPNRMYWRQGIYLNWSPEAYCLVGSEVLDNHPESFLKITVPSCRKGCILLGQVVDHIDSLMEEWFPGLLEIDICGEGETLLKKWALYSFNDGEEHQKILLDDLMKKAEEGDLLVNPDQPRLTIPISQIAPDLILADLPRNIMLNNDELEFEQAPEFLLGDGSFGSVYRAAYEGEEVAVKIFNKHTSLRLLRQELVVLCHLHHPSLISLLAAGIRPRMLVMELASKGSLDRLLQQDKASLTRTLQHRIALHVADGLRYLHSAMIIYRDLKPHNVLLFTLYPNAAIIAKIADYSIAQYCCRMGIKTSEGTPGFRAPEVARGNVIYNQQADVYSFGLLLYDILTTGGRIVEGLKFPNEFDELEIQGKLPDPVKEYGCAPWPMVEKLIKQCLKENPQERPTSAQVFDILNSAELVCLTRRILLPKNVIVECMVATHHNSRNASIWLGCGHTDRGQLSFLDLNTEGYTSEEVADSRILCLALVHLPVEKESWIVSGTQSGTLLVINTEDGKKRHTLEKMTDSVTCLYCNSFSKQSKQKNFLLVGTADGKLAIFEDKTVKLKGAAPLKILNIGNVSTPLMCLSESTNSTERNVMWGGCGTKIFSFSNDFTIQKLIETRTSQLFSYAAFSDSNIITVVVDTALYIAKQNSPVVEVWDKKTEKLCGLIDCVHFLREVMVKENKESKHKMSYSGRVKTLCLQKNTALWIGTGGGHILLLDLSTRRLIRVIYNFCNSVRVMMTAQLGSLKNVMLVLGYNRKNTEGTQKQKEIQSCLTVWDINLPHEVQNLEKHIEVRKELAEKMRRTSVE
- protocolDetails: LRRK2 G2019S enzyme inhibition, ADP-Glo kinase assay
Listed next: entries and their corresponding IC50.

Below, 4 compounds whose answers are already recorded.
compound="CNc1cc(Nc2ccc(P3(=O)CCN(C4CC4)CC3)cc2OC)nc2[nH]cc(C(F)(F)F)c12 [Example 205]" reportedendpoint=IC50 reading="101 to 300 nM"
compound="COc1cc(S(=O)(=O)N2CCOCC2)ccc1Nc1cc(NCCS(C)(=O)=O)c2c(C#N)c[nH]c2n1 [Example 130]" reportedendpoint=IC50 reading="< 100 nM"
compound="COc1cc(S(C)(=O)=O)ccc1Nc1cc(NCCS(C)(=O)=O)c2c(C(F)(F)F)c[nH]c2n1 [Example 193]" reportedendpoint=IC50 reading="301 to 1000 nM"
compound="COc1cc(S(=O)(=O)N2CCC(N3CCOCC3)CC2)ccc1Nc1cc(NC2CC2)c2c(Cl)c[nH]c2n1 [Example 76]" reportedendpoint=IC50 reading="< 100 nM"

Recorded IC50 for COc1cc(S(=O)(=O)N2CCOCC2)ccc1Nc1cc(NC2CC2)c2c(C#N)c[nH]c2n1 [Example 127] , please?
101 to 300 nM

###

- testedTarget: LRRK2 (G2019S) (Homo sapiens, UniProt Q5S007, G2019S)
- protocolDetails: LRRK2 G2019S enzyme inhibition, ADP-Glo kinase assay
- Experimental: In order to evaluate the inhibitory activity of the compounds according to the present invention on LRRK2, LRRK2 (G2019S), DYRK1, CLK1 and TTK kinases, the following experiment was performed. Example compounds were reacted with the purified human LRRK2 G2019S (L10-12GG, SignalChem) enzyme to evaluate the enzyme inhibitory ability as follows. […]
Listed next: entries and their corresponding IC50.

Below, 5 molecules whose answers are already recorded.
molecule="O=C(c1ccc(Nc2cc(C3CC3)c3c(C(F)(F)F)c[nH]c3n2)c2c1CCO2)N1CCC(N2CCOCC2)CC1 [Example 93]" testedtarget="LRRK2 (G2019S) (Homo sapiens, UniProt Q5S007, G2019S)" reading="< 100 nM"
molecule="O=C(c1ccc(Nc2cc(NC3CC3)c3cc[nH]c3n2)c2c1OCCO2)N1CCOCC1 [Example 7]" testedtarget="LRRK2 (G2019S) (Homo sapiens, UniProt Q5S007, G2019S)" reading="< 100 nM"
molecule="O=C(c1ccc(Nc2cc(NC3CC3)c3c(C(F)(F)F)c[nH]c3n2)c2c1CCO2)N1CCOCC1 [Example 53]" testedtarget="LRRK2 (G2019S) (Homo sapiens, UniProt Q5S007, G2019S)" reading="< 100 nM"
molecule="COc1cc(S(=O)(=O)N2CCOCC2)ccc1Nc1cc(NC2CC2)c2c(C(F)(F)F)c[nH]c2n1 [Example 186]" testedtarget="LRRK2 (G2019S) (Homo sapiens, UniProt Q5S007, G2019S)" reading="301 to 1000 nM"
molecule="CNc1cc(Nc2ccc(S(=O)(=O)N3CCOCC3)cc2OC)nc2[nH]ccc12 [Example 10]" testedtarget="LRRK2 (G2019S) (Homo sapiens, UniProt Q5S007, G2019S)" reading="101 to 300 nM"

Next, consider the following molecule.
Recorded IC50 for CCNc1cc(Nc2ccc(P3(=O)CCN(C(C)=O)CC3)cc2OC)nc2[nH]cc(C(F)(F)F)c12 [Example 42] , please?
101 to 300 nM

###

- testedTarget: human GST-DYRK1A (full length) (Homo sapiens, UniProt Q13627)
- Construct: purified human GST-DYRK1A (full length, Thermo scientifics) enzyme; GST; purchased Thermo scientifics
- protocolDetails: GST-DYRK1A enzyme inhibition, ADP-Glo kinase assay
- Type: biochemical
- settings: read-out: DYRK1 IC50
- Procedure: In order to evaluate the inhibitory activity of the compounds according to the present invention on LRRK2, LRRK2 (G2019S), DYRK1, CLK1 and TTK kinases, the following experiment was performed. Example compounds were reacted with the purified human GST-DYRK1A (full length, Thermo scientifics) enzyme to evaluate the enzyme inhibitory ability as follows. […] The IC50 of each compound was determined in triplicate data sets and obtained using Prism (version 7.01, GraphPad) software. […]
Listed next: entries and their corresponding IC50.

Below, 2 compounds whose answers are already recorded.
entrysmiles=COc1cc(S(C)(=O)=O)ccc1Nc1cc(NC2CCC2)c2c(Cl)c[nH]c2n1 testedtarget="human GST-DYRK1A (full length) (Homo sapiens, UniProt Q13627)" reportedendpoint=IC50 reading="101 to 300 nM"
entrysmiles=CNc1cc(Nc2ccc(C(=O)N3CCOCC3)c3c2OCCO3)nc2[nH]cc(C#N)c12 testedtarget="human GST-DYRK1A (full length) (Homo sapiens, UniProt Q13627)" reportedendpoint=IC50 reading="301 to 1000 nM"

Recorded IC50 for CNc1cc(Nc2ccc(C(=O)N3CCC(N4CCOCC4)CC3)c3c2OCC3)nc2[nH]cc(C(F)(F)F)c12 , please?
< 100 nM

And then O=C(c1ccc(Nc2cc(C3CC3)c3c(C(F)(F)F)c[nH]c3n2)c2c1OCCO2)N1CCOCC1 , what is it?
301 to 1000 nM

And then CCNc1cc(Nc2ccc(S(C)(=O)=O)cc2OC)nc2[nH]ccc12 , what is it?
301 to 1000 nM

And then COCCNc1cc(Nc2ccc(C(=O)N3CCOCC3)c3c2OCCO3)nc2[nH]cc(C(F)(F)F)c12 , what is it?
< 100 nM

And then CC(C)Nc1cc(Nc2ccc(C(=O)N3CCOCC3)c3c2OCCO3)nc2[nH]ccc12 , what is it?
301 to 1000 nM

And then COCCNc1cc(Nc2ccc(S(=O)(=O)N3CCC(N4CCOCC4)CC3)cc2OC)nc2[nH]cc(C(F)(F)F)c12 , what is it?
101 to 300 nM

###

- testedTarget: LRRK2 (Homo sapiens, UniProt Q5S007)
- Sequence (Q5S007 970-2527 limits assumed): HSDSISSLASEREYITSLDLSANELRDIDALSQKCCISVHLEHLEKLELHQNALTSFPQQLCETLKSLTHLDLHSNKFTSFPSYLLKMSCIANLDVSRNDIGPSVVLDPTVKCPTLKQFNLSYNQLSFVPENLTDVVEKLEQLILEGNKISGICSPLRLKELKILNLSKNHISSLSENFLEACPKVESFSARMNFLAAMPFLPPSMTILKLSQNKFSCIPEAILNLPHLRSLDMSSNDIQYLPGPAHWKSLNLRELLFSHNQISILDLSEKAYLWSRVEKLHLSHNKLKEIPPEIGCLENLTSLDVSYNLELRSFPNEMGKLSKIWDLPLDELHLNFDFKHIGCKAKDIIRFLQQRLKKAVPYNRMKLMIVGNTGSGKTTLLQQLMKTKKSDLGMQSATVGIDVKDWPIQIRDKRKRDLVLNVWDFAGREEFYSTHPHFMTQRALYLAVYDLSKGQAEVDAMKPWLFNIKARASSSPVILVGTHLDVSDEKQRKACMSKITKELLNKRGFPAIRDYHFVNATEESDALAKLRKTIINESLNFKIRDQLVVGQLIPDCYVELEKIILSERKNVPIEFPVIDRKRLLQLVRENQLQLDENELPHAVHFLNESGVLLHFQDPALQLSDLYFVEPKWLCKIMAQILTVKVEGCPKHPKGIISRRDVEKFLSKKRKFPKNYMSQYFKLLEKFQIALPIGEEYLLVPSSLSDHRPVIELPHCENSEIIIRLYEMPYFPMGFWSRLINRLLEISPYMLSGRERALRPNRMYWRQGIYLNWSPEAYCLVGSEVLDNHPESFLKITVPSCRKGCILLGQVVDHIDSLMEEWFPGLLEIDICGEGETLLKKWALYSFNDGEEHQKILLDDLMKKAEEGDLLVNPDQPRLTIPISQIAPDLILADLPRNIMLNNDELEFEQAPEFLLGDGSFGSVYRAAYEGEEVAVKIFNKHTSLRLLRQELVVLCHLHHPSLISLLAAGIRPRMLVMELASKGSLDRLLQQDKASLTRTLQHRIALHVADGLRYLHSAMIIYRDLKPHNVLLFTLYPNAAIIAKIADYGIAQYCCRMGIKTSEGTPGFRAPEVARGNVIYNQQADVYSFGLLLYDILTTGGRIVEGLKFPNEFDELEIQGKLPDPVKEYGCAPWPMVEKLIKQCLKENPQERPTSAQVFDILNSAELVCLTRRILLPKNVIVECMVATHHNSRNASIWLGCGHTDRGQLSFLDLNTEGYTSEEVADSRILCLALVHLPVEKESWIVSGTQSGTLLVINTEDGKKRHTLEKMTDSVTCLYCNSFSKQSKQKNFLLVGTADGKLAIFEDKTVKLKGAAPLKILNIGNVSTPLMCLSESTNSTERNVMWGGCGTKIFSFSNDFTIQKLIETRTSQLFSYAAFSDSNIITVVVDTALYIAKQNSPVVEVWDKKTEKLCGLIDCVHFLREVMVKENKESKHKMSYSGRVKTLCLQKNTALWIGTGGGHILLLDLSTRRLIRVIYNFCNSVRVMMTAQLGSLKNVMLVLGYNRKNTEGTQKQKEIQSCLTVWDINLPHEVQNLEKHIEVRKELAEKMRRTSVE
pIC50: −log10 of the molar value.
reportedEndpoint: pIC50

Below, 6 compounds whose answers are already recorded.
compound="COc1cc(S(=O)(=O)N2CCC(N3CCOCC3)CC2)ccc1Nc1cc(NCCS(C)(=O)=O)c2c(C#N)c[nH]c2n1 [Example 141]" testedtarget="LRRK2 (Homo sapiens, UniProt Q5S007)" reportedendpoint=pIC50 reading="> 7.00"
compound="COc1cc(S(C)(=O)=O)ccc1Nc1cc(C2CC2)c2c(C#N)c[nH]c2n1 [Example 229]" testedtarget="LRRK2 (Homo sapiens, UniProt Q5S007)" reportedendpoint=pIC50 reading="6.52 to 7.00"
compound="COCCNc1cc(Nc2ccc(C(=O)N3CCOCC3)c3c2OCCO3)nc2[nH]cc(Cl)c12 [Example 62]" testedtarget="LRRK2 (Homo sapiens, UniProt Q5S007)" reportedendpoint=pIC50 reading="> 7.00"
compound="O=C(c1ccc(Nc2cc(C3CC3)c3c(C(F)(F)F)c[nH]c3n2)c2c1OCO2)N1CCC(N2CCOCC2)CC1 [Example 49]" testedtarget="LRRK2 (Homo sapiens, UniProt Q5S007)" reportedendpoint=pIC50 reading="> 7.00"
compound="CNc1cc(Nc2ccc(C(=O)N3CCOCC3)c3c2OCCO3)nc2[nH]cc(C(F)(F)F)c12 [Example 152]" testedtarget="LRRK2 (Homo sapiens, UniProt Q5S007)" reportedendpoint=pIC50 reading="> 7.00"
compound="CNc1cc(Nc2ccc(C(=O)N3CCOCC3)c3c2OCO3)nc2[nH]cc(C(F)(F)F)c12 [Example 38]" testedtarget="LRRK2 (Homo sapiens, UniProt Q5S007)" reportedendpoint=pIC50 reading="6.52 to 7.00"

Recorded pIC50 for CCOc1cc(Nc2ccc(S(=O)(=O)N3CCC(N4CCOCC4)CC3)cc2OC)nc2[nH]cc(C(F)(F)F)c12 [Example 232] , please?
6.52 to 7.00

And then CNc1cc(Nc2ccc(P3(=O)CCN(C4COC4)CC3)cc2OC)nc2[nH]cc(C#N)c12 [Example 142] , what is it?
> 7.00

###

- testedTarget: LRRK2 (G2019S) (Homo sapiens, UniProt Q5S007, G2019S)
- protocolDetails: LRRK2 G2019S enzyme inhibition, ADP-Glo kinase assay
reportedEndpoint: IC50

Below, 6 compounds whose answers are already recorded.
entrysmiles=CCNc1cc(Nc2ccc(C(=O)N3CCC(N4CCOCC4)CC3)c3c2OCO3)nc2[nH]cc(C(F)(F)F)c12 testedtarget="LRRK2 (G2019S) (Homo sapiens, UniProt Q5S007, G2019S)" reading="< 100 nM"
entrysmiles=CCCNc1cc(Nc2ccc(C(=O)N3CCC(N4CCOCC4)CC3)c3c2OCCO3)nc2[nH]cc(C(F)(F)F)c12 testedtarget="LRRK2 (G2019S) (Homo sapiens, UniProt Q5S007, G2019S)" reading="< 100 nM"
entrysmiles=CCNc1cc(Nc2ccc(S(=O)(=O)N3CCC(N4CCOCC4)CC3)cc2OC)nc2[nH]cc(C(F)(F)F)c12 testedtarget="LRRK2 (G2019S) (Homo sapiens, UniProt Q5S007, G2019S)" reading="< 100 nM"
entrysmiles=CCNc1cc(Nc2ccc(P(C)(C)=O)cc2OC)nc2[nH]cc(C(F)(F)F)c12 testedtarget="LRRK2 (G2019S) (Homo sapiens, UniProt Q5S007, G2019S)" reading="< 100 nM"
entrysmiles=COc1cc(S(=O)(=O)N2CCC(N3CCOCC3)CC2)ccc1Nc1cc(NCCS(C)(=O)=O)c2c(C(F)(F)F)c[nH]c2n1 testedtarget="LRRK2 (G2019S) (Homo sapiens, UniProt Q5S007, G2019S)" reading="< 100 nM"
entrysmiles=COc1cc(S(=O)(=O)N2CCOCC2)ccc1Nc1cc(C2CC2)c2c(C#N)c[nH]c2n1 testedtarget="LRRK2 (G2019S) (Homo sapiens, UniProt Q5S007, G2019S)" reading="101 to 300 nM"

Recorded IC50 for CNc1cc(Nc2ccc(C(=O)N3CCOCC3)c3c2OCCO3)nc2[nH]cc(C#N)c12 , please?
< 100 nM

And then CCNc1cc(Nc2ccc(S(=O)(=O)N3CCOCC3)cc2OC)nc2[nH]cc(C(F)(F)F)c12 , what is it?
301 to 1000 nM

And then CCNc1cc(Nc2ccc(C(=O)N3CCN(C4CCCC4)CC3)c3c2OCC3)nc2[nH]cc(C(F)(F)F)c12 , what is it?
< 100 nM

And then COCCNc1cc(Nc2ccc(C(=O)N3CCOCC3)c3c2OCCO3)nc2[nH]cc(C(F)(F)F)c12 , what is it?
< 100 nM

And then COCCNc1cc(Nc2ccc(C(=O)N3CCOCC3)c3c2OCC3)nc2[nH]cc(C(F)(F)F)c12 , what is it?
< 100 nM

And then C=CCNc1cc(Nc2ccc(C(=O)N3CC[C@@H](N4CCOCC4)C3)c3c2OCC3)nc2[nH]cc(C(F)(F)F)c12 , what is it?
< 100 nM
